Test system: Staphylococcus aureus SA1199B
Type: cell-based

- compound: "CNC(CC(C)C)C(=O)NC1C(=O)NC(CC(N)=O)C(=O)NC2C(=O)NC3C(=O)NC(C(=O)NC(C(=O)O)c4cc(O)cc(O)c4-c4cc3ccc4O)C(OC3CC(C)(N)C(O)C(C)O3)c3ccc(c(Cl)c3)Oc3cc2cc(c3OC2OC(CO)C(O)C(O)C2OC2CC(C)(NCc3cccc(OC(C)=O)c3)C(O)C(C)O2)Oc2ccc(cc2Cl)C1O (stereo not drawn)"
  MIC: "0.125 µg/mL"
- compound: "CNC(CC(C)C)C(=O)NC1C(=O)NC(CC(N)=O)C(=O)NC2C(=O)NC3C(=O)NC(C(=O)NC(C(=O)O)c4cc(O)cc(O)c4-c4cc3ccc4O)C(OC3CC(C)(N)C(O)C(C)O3)c3ccc(c(Cl)c3)Oc3cc2cc(c3OC2OC(CO)C(O)C(O)C2OC2CC(C)(NCc3ccc(OC(F)F)cc3)C(O)C(C)O2)Oc2ccc(cc2Cl)C1O (stereo not drawn)"
  MIC: "≤ 0.06 µg/mL"
- compound: "CNC(CC(C)C)C(=O)NC1C(=O)NC(CC(N)=O)C(=O)NC2C(=O)NC3C(=O)NC(C(=O)NC(C(=O)O)c4cc(O)cc(O)c4-c4cc3ccc4O)C(OC3CC(C)(N)C(O)C(C)O3)c3ccc(c(Cl)c3)Oc3cc2cc(c3OC2OC(CO)C(O)C(O)C2OC2CC(C)(NCc3ccc(-c4ccccc4)cc3)C(O)C(C)O2)Oc2ccc(cc2Cl)C1O (stereo not drawn) [Compound 2, p-phenylbenzyl·A82846B]"
  MIC: "≤ 0.06 µg/mL"

====

Each record here notes measured MIC.
System: Haemophilus influenzae RD
Test: broth micro-dilution MIC
Assay type: cell-based
Details: Haemophilus influenzae RD

- compound: "CNC(CC(C)C)C(=O)NC1C(=O)NC(CC(N)=O)C(=O)NC2C(=O)NC3C(=O)NC(C(=O)NC(C(=O)O)c4cc(O)cc(O)c4-c4cc3ccc4O)C(OC3CC(C)(N)C(O)C(C)O3)c3ccc(c(Cl)c3)Oc3cc2cc(c3OC2OC(CO)C(O)C(O)C2OC2CC(C)(NCc3cc4ccccc4s3)C(O)C(C)O2)Oc2ccc(cc2Cl)C1O (stereo not drawn)"
  censor_symbol: "="
  MIC / µg/mL: 32
- compound: "CC(C)CC(C(=O)NC1C(=O)NC(CC(N)=O)C(=O)NC2C(=O)NC3C(=O)NC(C(=O)NC(C(=O)O)c4cc(O)cc(O)c4-c4cc3ccc4O)C(OC3CC(C)(N)C(O)C(C)O3)c3ccc(c(Cl)c3)Oc3cc2cc(c3OC2OC(CO)C(O)C(O)C2OC2CC(C)(NCc3ccc(-c4ccc(Cl)cc4)cc3)C(O)C(C)O2)Oc2ccc(cc2Cl)C1O)N(C)Cc1ccc(-c2ccc(Cl)cc2)cc1.O=C(O)C(F)(F)F (stereo not drawn)"
  censor_symbol: ">"
  MIC / µg/mL: 64
- compound: "CNC(CC(C)C)C(=O)NC1C(=O)NC(CC(N)=O)C(=O)NC2C(=O)NC3C(=O)NC(C(=O)NC(C(=O)O)c4cc(O)cc(O)c4-c4cc3ccc4O)C(OC3CC(C)(N)C(O)C(C)O3)c3ccc(c(Cl)c3)Oc3cc2cc(c3OC2OC(CO)C(O)C(O)C2OC2CC(C)(NCCCCCCCCCC#Cc3ccccc3)C(O)C(C)O2)Oc2ccc(cc2Cl)C1O (stereo not drawn)"
  censor_symbol: "="
  MIC / µg/mL: 32
- compound: "CNC(CC(C)C)C(=O)NC1C(=O)NC(CC(N)=O)C(=O)NC2C(=O)NC3C(=O)NC(C(=O)NC(C(=O)O)c4cc(O)cc(O)c4-c4cc3ccc4O)C(OC3CC(C)(N)C(O)C(C)O3)c3ccc(c(Cl)c3)Oc3cc2cc(c3OC2OC(CO)C(O)C(O)C2OC2CC(C)(NCc3ccc(Oc4ccccc4[N+](=O)[O-])cc3)C(O)C(C)O2)Oc2ccc(cc2Cl)C1O (stereo not drawn)"
  censor_symbol: "="
  MIC / µg/mL: 16
- compound: "CNC(CC(C)C)C(=O)NC1C(=O)NC(CC(N)=O)C(=O)NC2C(=O)NC3C(=O)NC(C(=O)NC(C(=O)O)c4cc(O)cc(O)c4-c4cc3ccc4O)C(OC3CC(C)(NCc4ccc5c(c4)Cc4ccccc4-5)C(O)C(C)O3)c3ccc(c(Cl)c3)Oc3cc2cc(c3OC2OC(CO)C(O)C(O)C2OC2CC(C)(NCc3ccc4c(c3)Cc3ccccc3-4)C(O)C(C)O2)Oc2ccc(cc2Cl)C1O (stereo not drawn)"
  censor_symbol: ">"
  MIC / µg/mL: 64
- compound: "CNC(CC(C)C)C(=O)NC1C(=O)NC(CC(N)=O)C(=O)NC2C(=O)NC3C(=O)NC(C(=O)NC(C(=O)O)c4cc(O)cc(O)c4-c4cc3ccc4O)C(OC3CC(C)(N)C(O)C(C)O3)c3ccc(c(Cl)c3)Oc3cc2cc(c3OC2OC(CO)C(O)C(O)C2OC2CC(C)(NCc3ccc(-c4ccc(O)cc4)cc3)C(O)C(C)O2)Oc2ccc(cc2Cl)C1O (stereo not drawn)"
  censor_symbol: "="
  MIC / µg/mL: 8

====

System: vancomycin-susceptible enterococci
Experiment: broth micro-dilution, mean geometric MIC
Format: cell-based, Enterococcus faecium and Enterococcus faecalis
Settings: enterococci, 24-hour incubation
mean geometric MIC, Vancomycin Sensitive Strains under 0.2 µg/mL gets t, anything at or over 0.2 µg/mL gets f.

- molecule: "CCCCCCCCC#CCCCCCCNC1(C)CC(OC2C(Oc3c4cc5cc3Oc3ccc(cc3Cl)C(OC3CC(C)(N)C(O)C(C)O3)C3NC(=O)C(NC(=O)C5NC(=O)C(CC(N)=O)NC(=O)C(NC(=O)C(CC(C)C)NC)C(O)c5ccc(c(Cl)c5)O4)c4ccc(O)c(c4)-c4c(O)cc(O)cc4C(C(=O)O)NC3=O)OC(CO)C(O)C2O)OC(C)C1O (stereo not drawn) [Compound 207]"
  measurement_target: "vancomycin-susceptible enterococci"
  class_name: "f"
- molecule: "CNC(CC(C)C)C(=O)NC1C(=O)NC(CC(N)=O)C(=O)NC2C(=O)NC3C(=O)NC(C(=O)NC(C(=O)O)c4cc(O)cc(O)c4-c4cc3ccc4O)C(OC3CC(C)(N)C(O)C(C)O3)c3ccc(c(Cl)c3)Oc3cc2cc(c3OC2OC(CO)C(O)C(O)C2OC2CC(C)(NCc3ccc(S(=O)(=O)c4ccc(Cl)cc4)cc3)C(O)C(C)O2)Oc2ccc(cc2Cl)C1O (stereo not drawn) [Compound 148]"
  measurement_target: "vancomycin-susceptible enterococci"
  class_name: "t"
- molecule: "CNC(CC(C)C)C(=O)NC1C(=O)NC(CC(N)=O)C(=O)NC2C(=O)NC3C(=O)NC(C(=O)NC(C(=O)O)c4cc(O)cc(O)c4-c4cc3ccc4O)C(OC3CC(C)(N)C(O)C(C)O3)c3ccc(c(Cl)c3)Oc3cc2cc(c3OC2OC(CO)C(O)C(O)C2OC2CC(C)(NCc3ccc4c(c3)Cc3ccccc3-4)C(O)C(C)O2)Oc2ccc(cc2Cl)C1O (stereo not drawn) [Compound 32]"
  measurement_target: "vancomycin-susceptible enterococci"
  class_name: "t"
- molecule: "CNC(CC(C)C)C(=O)NC1C(=O)NC(CC(N)=O)C(=O)NC2C(=O)NC3C(=O)NC(C(=O)NC(C(=O)O)c4cc(O)cc(O)c4-c4cc3ccc4O)C(OC3CC(C)(N)C(O)C(C)O3)c3ccc(c(Cl)c3)Oc3cc2cc(c3OC2OC(CO)C(O)C(O)C2OC2CC(C)(NCC3CCC(c4ccccc4)C3)C(O)C(C)O2)Oc2ccc(cc2Cl)C1O (stereo not drawn) [Compound 140]"
  measurement_target: "vancomycin-susceptible enterococci"
  class_name: "t"
- molecule: "CNC(CC(C)C)C(=O)NC1C(=O)NC(CC(N)=O)C(=O)NC2C(=O)NC3C(=O)NC(C(=O)NC(C(=O)O)c4cc(O)cc(O)c4-c4cc3ccc4O)C(OC3CC(C)(N)C(O)C(C)O3)c3ccc(c(Cl)c3)Oc3cc2cc(c3OC2OC(CO)C(O)C(O)C2OC2CC(C)(NCc3ccc(SC)cc3)C(O)C(C)O2)Oc2ccc(cc2Cl)C1O (stereo not drawn) [Compound 41]"
  measurement_target: "vancomycin-susceptible enterococci"
  class_name: "f"
- molecule: "CNC(CC(C)C)C(=O)NC1C(=O)NC(CC(N)=O)C(=O)NC2C(=O)NC3C(=O)NC(C(=O)NC(C(=O)O)c4cc(O)cc(O)c4-c4cc3ccc4O)C(OC3CC(C)(N)C(O)C(C)O3)c3ccc(c(Cl)c3)Oc3cc2cc(c3OC2OC(CO)C(O)C(O)C2OC2CC(C)(NCc3ccccn3)C(O)C(C)O2)Oc2ccc(cc2Cl)C1O (stereo not drawn) [Compound 31]"
  measurement_target: "vancomycin-susceptible enterococci"
  class_name: "f"

====

Entries and their MIC values follow.
System: Staphylococcus aureus SA1199B
Format: cell-based
observation_type: MIC (µg/mL)

- molecule: "CNC(CC(C)C)C(=O)NC1C(=O)NC(CC(N)=O)C(=O)NC2C(=O)NC3C(=O)NC(C(=O)NC(C(=O)O)c4cc(O)cc(O)c4-c4cc3ccc4O)C(OC3CC(C)(N)C(O)C(C)O3)c3ccc(c(Cl)c3)Oc3cc2cc(c3OC2OC(CO)C(O)C(O)C2OC2CC(C)(NCC3CCC(C4CCCCC4)CC3)C(O)C(C)O2)Oc2ccc(cc2Cl)C1O (centres unmarked)"
  unit_descriptor: "µg/mL"
  reading: 2
- molecule: "CNC(CC(C)C)C(=O)NC1C(=O)NC(CC(N)=O)C(=O)NC2C(=O)NC3C(=O)NC(C(=O)NC(C(=O)O)c4cc(O)cc(O)c4-c4cc3ccc4O)C(OC3CC(C)(N)C(O)C(C)O3)c3ccc(c(Cl)c3)Oc3cc2cc(c3OC2OC(CO)C(O)C(O)C2OC2CC(C)(NCc3cncc(-c4ccccc4)c3)C(O)C(C)O2)Oc2ccc(cc2Cl)C1O (centres unmarked) [Compound 151]"
  unit_descriptor: "µg/mL"
  reading: 0.25
